The origin of these recorded values is the Immune Epitope Database (IEDB).

target: HLA-A*11:01; assay: IEDB peptide-MHC binding, purified MHC/competitive/radioactivity; filed as Kd, often an IC50 or EC50 that approximates it; bounds were set here for any values at or beyond the usual limits of such assays; settings: source organism: Plasmodium falciparum
pKd: −log10 of the molar value.

{"columns": ["entry.sequence", "pKd"],
 "data": [
  ["KPIVQYDNF", "≤ 5.30"]
]}

---

molecular target: HLA-A*24:02; assay: IEDB peptide-MHC binding, purified MHC/competitive/radioactivity; filed as Kd, often an IC50 or EC50 that approximates it; bounds were set here for any values at or beyond the usual limits of such assays; details: source organism: Human immunodeficiency virus type 1 (NDK ISOLATE)
pKd: −log10 of the molar value.
Catalogue of pKd values

{"columns": ["entry.sequence", "pKd"],
 "data": [
  ["ILKEPVHGV", "≤ 5.30"],
  ["AVDLSHFLK", "≤ 5.30"]
]}
